system: SF-295 CNS; assay: NCI tumour cell line growth inhibition, 48 h

MOLECULE: CC(=O)OCC1OC(NC(=O)N(CCCl)N=O)C(OC(C)=O)C(OC(C)=O)C1OC(C)=O (centres undefined)
TGI: > 100 µM
--
MOLECULE: O=C1NC2(CCCCC2)C(=O)N1CCN(CCCl)CCCl
TGI: > 250 µM
--
MOLECULE: COc1ccc(OC)c(/C=C2\CCc3ccccc3C2=O)c1
TGI: 12.4 µM
--
MOLECULE: COc1ccc(N2C(=O)/C(=C\c3ccccc3)SC2c2cc(OC)c(OC)c(OC)c2)cc1 (centres undefined)
TGI: > 100 µM
--
MOLECULE: O=C(Nc1cc(F)c(F)cc1C(=O)O)c1ccc(-n2ccnc2)nn1
TGI: > 100 µM
--
MOLECULE: Cc1c2ccncc2c(C)c2c1[nH]c1ccc(Oc3ccccc3)cc12
TGI: 12.6 µM
--
MOLECULE: N#Cc1ccc(Oc2ccccc2)cc1C#N
TGI: > 100 µM
--
MOLECULE: Cn1cc(C2=C(c3cn(CCCN)c4ccccc34)C(=O)NC2=O)c2ccccc21
TGI: > 25 µM
--
MOLECULE: C=CCNC1=C2C[C@@H](C)C[C@H](OC)[C@H](O)[C@@H](C)/C=C(\C)[C@H](OC(N)=O)[C@@H](OC)/C=C\C=C(/C)C(=O)NC(=CC1=O)C2=O
TGI: 7.46 µM
--
MOLECULE: CCOC(=O)c1c(N2CCCC2)[nH]c(=O)c(C(c2ccc(Cl)c([N+](=O)[O-])c2)c2c(O)c(C(=O)OCC)c(N3CCCC3)[nH]c2=O)c1O
TGI: > 100 µM
--
MOLECULE: CC1=C(C(=O)Nc2ccc(F)c(Cl)c2)C(c2cccc(Oc3ccccc3)c2)NC(=S)N1 (centres undefined)
TGI: > 50 µM
--
MOLECULE: Nc1nc(Cl)c2ncn(Cc3cccc(CCl)c3)c2n1
TGI: 21.3 µM
--
MOLECULE: Fc1ccc(-c2nn3ccccc3c2-c2ccncc2)cc1
TGI: > 25 µM
--
MOLECULE: OCCCCn1cc(Cn2ncc3c(NCc4ccccc4)ncnc32)nn1
TGI: > 100 µM
--
MOLECULE: CC1C[C@]2(C[C@@H](C)C(=O)O2)OC2CC3(C)C4CCC5C(C)(C)OC(=O)CC[C@@]56C[C@@]46CC[C@]3(C)C12 (some centres undefined)
TGI: > 100 µM
--
MOLECULE: COc1cc(/C=C(\NC(=O)c2ccccc2)c2nc3ncncc3[nH]2)cc(OC)c1OC
TGI: > 100 µM
--
MOLECULE: OC1CCCC2CCC[N-]C12.OC1CCCC2CCC[N-]C12.[O]=[V][OH] (centres undefined)
TGI: 76.9 µM
--
MOLECULE: C#CC1(O)C(COP(=O)(O)OCC2OC(n3cc(F)c(=O)[nH]c3=O)CC2O)OC(n2ccc(N)nc2=O)C1O (centres undefined)
TGI: 4.26 µM
--
MOLECULE: CCN(CC)C(=S)SCC(=O)Nc1nc2c(s1)CCCC2
TGI: > 100 µM

* * *

Examples of molecules with documented GI50 follow.
tested on: SF-268 CNS; assay: NCI tumour cell line growth inhibition, 48 h

MOL: O=C(Nc1cc(Cl)ccc1O)c1cccc(Nc2ccnc(C(F)(F)F)c2)c1
ASSAYED_TARGET: SF-268 CNS
GI50: 7.35 µM

MOL: CN(C)Cc1ccc(NC(=O)c2cncc(C#Cc3cnc(N)c4ncccc34)c2)cc1F
ASSAYED_TARGET: SF-268 CNS
GI50: 2.25 µM

MOL: Fc1ccc(-c2nn3ccccc3c2-c2ccncc2)cc1
ASSAYED_TARGET: SF-268 CNS
GI50: > 25 µM

MOL: Oc1[nH]c2ccccc2c1/C=c1/ccc2c(c1)N=C(c1ccc(C(F)(F)F)cc1)N=2
ASSAYED_TARGET: SF-268 CNS
GI50: 3.46 µM

MOL: COc1ccc(-c2cn(-c3ccc(OC)c(OC)c3)c(=O)[nH]2)cc1
ASSAYED_TARGET: SF-268 CNS
GI50: > 100 µM

MOL: CNC(=O)c1c(F)cccc1Nc1nc(Nc2cc3c(cc2OC)CCN3C(=O)CN(C)C)nc2[nH]ccc12
ASSAYED_TARGET: SF-268 CNS
GI50: 5.44 µM

MOL: C#C[C@@]1(O)[C@@H](CO)O[C@@H](n2cc(C(F)(F)F)c3c(N)ncnc32)[C@@H]1O
ASSAYED_TARGET: SF-268 CNS
GI50: 1.55 µM
